metric-name: melting point

Request: Read off the recorded melting point for COc1c(C(=O)/C=C/c2c(F)c(F)c(F)c(F)c2F)c(O)c(OC)c2occc12 [Compound 15]
Result: 300 to 301 °C

Request: Read off the recorded melting point for COc1c(C(=O)/C=C/c2c(Cl)cccc2Cl)c(O)c(OC)c2occc12 [Compound 10]
Result: 298 to 299 °C

Request: Read off the recorded melting point for CCOc1ccc(Br)cc1/C=C/C(=O)c1c(O)c(OC)c2occc2c1OC [Compound 11]
Result: 260 to 261 °C

Request: Read off the recorded melting point for COc1c(C(=O)/C=C/c2ccc(Cl)cc2)c(O)c(OC)c2occc12 [Compound 4]
Result: 162 to 164 °C

Request: Read off the recorded melting point for COc1c(C(=O)/C=C/c2ccc(Br)cc2)c(O)c(OC)c2occc12 [Compound 3]
Result: 135 to 137 °C

Request: Read off the recorded melting point for COc1cccc(/C=C/C(=O)c2c(O)c(OC)c3occc3c2OC)c1OC [Compound 13]
Result: 260 to 262 °C

Request: Read off the recorded melting point for COc1c(C(=O)/C=C/c2ccc(F)cc2F)c(O)c(OC)c2occc12 [Compound 7]
Result: 154 to 156 °C

Request: Read off the recorded melting point for COc1c(C(=O)/C=C/c2cccnc2)c(O)c(OC)c2occc12 [Compound 8]
Result: 112 to 114 °C

Request: Read off the recorded melting point for COc1c(C(=O)/C=C/c2ccccc2Cl)c(O)c(OC)c2occc12 [Compound 12]
Result: 160 to 161 °C

Request: Read off the recorded melting point for COc1c(C(=O)/C=C/c2ccc(F)c(Br)c2)c(O)c(OC)c2occc12 [Compound 5]
Result: 186 to 188 °C

Request: Read off the recorded melting point for COc1ccc(/C=C/C(=O)c2c(O)c(OC)c3occc3c2OC)cc1 [Compound 9]
Result: 198 to 199 °C

* * *

Molecular target: CYP1B1 (Homo sapiens)
Sequence (Q16678 1-543): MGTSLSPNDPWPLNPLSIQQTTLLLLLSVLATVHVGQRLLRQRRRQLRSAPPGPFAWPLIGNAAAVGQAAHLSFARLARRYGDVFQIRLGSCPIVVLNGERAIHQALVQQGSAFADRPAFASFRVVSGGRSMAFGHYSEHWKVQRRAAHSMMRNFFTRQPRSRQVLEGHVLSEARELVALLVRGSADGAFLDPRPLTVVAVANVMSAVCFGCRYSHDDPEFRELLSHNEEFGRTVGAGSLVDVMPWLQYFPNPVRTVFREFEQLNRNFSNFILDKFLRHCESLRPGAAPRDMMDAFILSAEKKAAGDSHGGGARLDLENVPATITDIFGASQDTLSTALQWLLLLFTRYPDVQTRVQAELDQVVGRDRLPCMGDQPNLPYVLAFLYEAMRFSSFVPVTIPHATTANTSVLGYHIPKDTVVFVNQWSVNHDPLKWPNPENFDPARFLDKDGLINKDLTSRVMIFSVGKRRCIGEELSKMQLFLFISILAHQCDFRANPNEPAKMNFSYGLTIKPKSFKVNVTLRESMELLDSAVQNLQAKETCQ
Test: CYP1B1 inhibition in live human cells (HEK293)
Format: cell-based
Exercise: state measured IC50 for each of the compounds provided.
A number alone suffices; assume nM.

Request: Read off the recorded IC50 for COc1c(C(=O)/C=C/c2cccnc2)c(O)c(OC)c2occc12 [Compound 8]
Result: 265

Request: Read off the recorded IC50 for COc1c(C(=O)/C=C/c2ccc(F)cc2)c(O)c(OC)c2occc12 [Compound 6]
Result: 1320
